I'd appreciate it if you could supply OD450 values for the items below.
target: T1, human MSLN-R3 protein (human, UniProt Q13421 487-598); test: ELISA on coated antigen, antibody 100 nM
T1 construct: also called hMSLN-R3
T1 sequence (Q13421 495-606, form in doubt): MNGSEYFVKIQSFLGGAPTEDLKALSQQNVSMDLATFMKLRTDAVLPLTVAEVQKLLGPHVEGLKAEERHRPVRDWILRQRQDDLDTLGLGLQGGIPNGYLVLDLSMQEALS
Give a bare numeral; the unit OD450 is implied.

query: Dear colleague, please send me the reported OD450 for F7.33.24-H7 (scFv, not shown: small tags and cut ends, also called S009-F7.33.24 humanized antibody VH2 + VL1) scFv: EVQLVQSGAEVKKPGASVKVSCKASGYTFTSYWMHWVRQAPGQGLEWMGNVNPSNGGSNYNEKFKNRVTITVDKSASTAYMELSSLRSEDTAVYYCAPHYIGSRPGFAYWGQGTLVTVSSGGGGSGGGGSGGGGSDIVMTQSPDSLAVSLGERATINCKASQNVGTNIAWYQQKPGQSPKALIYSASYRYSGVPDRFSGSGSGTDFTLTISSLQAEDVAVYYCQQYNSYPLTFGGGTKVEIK when you can.
result: 1.95

query: Provide one value: measured OD450 of F7.33.24-H8 (scFv, not shown: small tags and cut ends, also called S009-F7.33.24 humanized antibody VH2 + VL2) scFv: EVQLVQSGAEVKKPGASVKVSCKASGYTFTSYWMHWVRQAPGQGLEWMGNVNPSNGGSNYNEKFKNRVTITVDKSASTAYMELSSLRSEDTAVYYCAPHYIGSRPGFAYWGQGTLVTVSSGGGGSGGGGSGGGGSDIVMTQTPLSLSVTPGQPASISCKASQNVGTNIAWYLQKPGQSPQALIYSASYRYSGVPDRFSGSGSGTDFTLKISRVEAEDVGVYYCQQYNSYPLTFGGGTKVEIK
result: 2.16
